measurement_protocol: Plasma pharmacokinetics of DT2216 in patients, phase 1 dose escalation
Type: in vivo, human
measurement_parameters: human, plasma, iv, 0.08 mg/kg, Cycle 1 Day 1, 0.08 mg/kg IV, plasma, median (min, max), N = 1

# item_smiles, Tmax
records = [
    ("Cc1ncsc1-c1ccc([C@H](C)NC(=O)[C@@H]2C[C@@H](O)CN2C(=O)[C@@H](NC(=O)CCCCCC(=O)N2CCN(CC[C@H](CSc3ccccc3)Nc3ccc(S(=O)(=O)NC(=O)c4ccc(N5CCN(CC6=C(c7ccc(Cl)cc7)CCC(C)(C)C6)CC5)cc4)cc3S(=O)(=O)C(F)(F)F)CC2)C(C)(C)C)cc1", "1.5 h"),
]

###

measurement_protocol: Plasma pharmacokinetics of DT2216 in patients, phase 1 dose escalation
Type: in vivo, human
measurement_parameters: human, plasma, iv, 0.12 mg/kg, Cycle 1 Day 22, 0.12 mg/kg IV BIW, plasma, median (min, max), N = 1

# molecule, output_unit, Tmax
rows = [
    ("Cc1ncsc1-c1ccc([C@H](C)NC(=O)[C@@H]2C[C@@H](O)CN2C(=O)[C@@H](NC(=O)CCCCCC(=O)N2CCN(CC[C@H](CSc3ccccc3)Nc3ccc(S(=O)(=O)NC(=O)c4ccc(N5CCN(CC6=C(c7ccc(Cl)cc7)CCC(C)(C)C6)CC5)cc4)cc3S(=O)(=O)C(F)(F)F)CC2)C(C)(C)C)cc1 [DT2216]", "h", 2.5),
]

###

measurement_protocol: Plasma pharmacokinetics of DT2216 in patients, phase 1 dose escalation
Type: in vivo, human
measurement_parameters: human, plasma, iv, 0.24 mg/kg, Cycle 1 Day 1, 0.24 mg/kg IV, plasma, mean (CV%), N = 6; read-out: AUClast
measured_metric: AUC(0-t)

# item_smiles, value_reported
records = [
    ("Cc1ncsc1-c1ccc([C@H](C)NC(=O)[C@@H]2C[C@@H](O)CN2C(=O)[C@@H](NC(=O)CCCCCC(=O)N2CCN(CC[C@H](CSc3ccccc3)Nc3ccc(S(=O)(=O)NC(=O)c4ccc(N5CCN(CC6=C(c7ccc(Cl)cc7)CCC(C)(C)C6)CC5)cc4)cc3S(=O)(=O)C(F)(F)F)CC2)C(C)(C)C)cc1", "37600 ng·h/mL"),
]

###

measurement_protocol: Plasma pharmacokinetics of DT2216 in patients, phase 1 dose escalation
Assay type: in vivo, human
measurement_parameters: human, plasma, iv, 0.04 mg/kg, Cycle 1 Day 1, 0.04 mg/kg IV, plasma, median (min, max), N = 1

# molecule, Tmax [min]
rows = [
    ("Cc1ncsc1-c1ccc([C@H](C)NC(=O)[C@@H]2C[C@@H](O)CN2C(=O)[C@@H](NC(=O)CCCCCC(=O)N2CCN(CC[C@H](CSc3ccccc3)Nc3ccc(S(=O)(=O)NC(=O)c4ccc(N5CCN(CC6=C(c7ccc(Cl)cc7)CCC(C)(C)C6)CC5)cc4)cc3S(=O)(=O)C(F)(F)F)CC2)C(C)(C)C)cc1 [DT2216]", 45),
]

###

measurement_protocol: Plasma pharmacokinetics of DT2216 in patients, phase 1 dose escalation
Type: in vivo, human
measurement_parameters: human, plasma, iv, 0.32 mg/kg, Cycle 1 Day 22, 0.32 mg/kg IV BIW, plasma, mean (CV%), N = 5; read-out: T½ (converted)
measured_metric: half-life (h)

# item_smiles, output_unit, value_reported
data = [
    ("Cc1ncsc1-c1ccc([C@H](C)NC(=O)[C@@H]2C[C@@H](O)CN2C(=O)[C@@H](NC(=O)CCCCCC(=O)N2CCN(CC[C@H](CSc3ccccc3)Nc3ccc(S(=O)(=O)NC(=O)c4ccc(N5CCN(CC6=C(c7ccc(Cl)cc7)CCC(C)(C)C6)CC5)cc4)cc3S(=O)(=O)C(F)(F)F)CC2)C(C)(C)C)cc1", "h", 5.82),
]
